# PROCEDURE_SUMMARY: chemical genetic growth profiling, strain panel (AID 1159580);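 note: tested at 20 µM; growth read once vehicle control cultures reached saturation at 30 °C; 1 = growth at the plate median or of vehicle wells; lower values mean less growth of the strain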
# CONDITION_SET: S. cerevisiae deletion strains, growth OD, locus YHR013C, strain ard1
In all, about 5,500 compounds went through this assay and about 2,000 (36%) were called active. Not shown: some 18% with an inconclusive outcome. Cut-off read from the data, not from the text of the source: active = normalized growth mostly below about 0.91 (no sharp cut-off); inconclusive = no clear call, values can overlap the other calls; inactive = mostly above about 0.92. The list shows a part of the results. Where a SMILES comes first, the peptide text is derived from it.
Permitted responses: T (active), F (inactive)

*Q* What classification did `CN1CCC[C@@H]1CCO[C@](C)(c1ccccc1)c1ccc(Cl)cc1` end up with in this test?
*A* F

*Q* Call for entry `CC(=O)N[C@@H](CCC(=O)O)C(=O)O` :
*A* F

*Q* Kindly provide the recorded test outcome for the following compound: O=c1cccc2n1CC1CC2CN2CCCC[C@@H]12 (stereo partly specified)
*A* F

*Q* Give the logged outcome of this assay for the following compound: Clc1ccc(C(Cn2ccnc2)OCc2ccsc2Cl)c(Cl)c1 (stereo unspecified)
*A* T

*Q* Record lookup: outcome of this test for `Clc1ccc(CO/N=C(/Cn2ccnc2)c2ccc(Cl)cc2Cl)c(Cl)c1` ?
*A* T

*Q* Hi, sorry to bother you, what did the test record for `Cc1cc(CC(=O)O)n(C)c1C(=O)c1ccc(Cl)cc1` ?
*A* F

*Q* Tell me the assay call for CCCCCCCCCCCCCC(=O)OC1C(C)C2(O)C(C=C(CO)CC3(O)C(=O)C(C)=CC32)C2C(C)(C)C12OC(C)=O (stereo unspecified) please.
*A* F

*Q* For COC[C@]12CN(C=O)C3[C@@H]4[C@H](OC)C1[C@]3(C1CC3(O)C(OC)C(O)C4(OC(C)=O)C1C3OC(=O)c1ccccc1)[C@@H](OC)C[C@H]2O (stereo partly specified) , what call appears in the results of this test?
*A* F

*Q* Status in this test for `NC1(C(=O)O)CCCC1` ?
*A* F

*Q* Each compound tested received a call. Report the one for CC(C)=CC1C(C(=O)OCc2cccc(Oc3ccccc3)c2)C1(C)C (stereo unspecified) .
*A* F

*Q* // return assay outcome for `C[C@H]1C[C@@H](O)[C@]2(O)[C@@]13CC(=O)OC[C@@]2(C)[C@](C)(O)C(=O)C3`
*A* F

*Q* Hi team, can someone confirm the assay call for COC(=O)[C@@H]1OC(=O)C2OC23[C@@]1(C)CCC1[C@@]2(C)CCC(=O)C(C)(C)C2C[C@@H](OC(C)=O)[C@]13C (stereo partly specified) ?
*A* F

*Q* Give the logged outcome of this assay for the following compound: C[C@@H]1CC[C@H]2C(C)(C)C3CC12CC[C@@]3(C)O (stereo partly specified)
*A* F

*Q* Dear all, I need the recorded test outcome for `NCCCNCCSP(=O)(O)O` , thank you.
*A* F

*Q* Tell me the assay call for `NCCCCCC(=O)O` please.
*A* F

*Q* What did this assay record as the result for C[C@@H]1CC2C3CCC4=CC(=O)C=C[C@]4(C)[C@@]3(F)[C@@H](O)C[C@]2(C)[C@@]1(O)C(=O)CO (stereo partly specified) ?
*A* F

*Q* Given Clc1ccc(COC(Cn2ccnc2)c2ccc(Cl)cc2Cl)c(Cl)c1 (stereo unspecified) , state the outcome it received in this test.
*A* T

*Q* Please share the test call associated with CCN1C[C@@]2(COC)C3[C@@H](OC)[C@H]4[C@@H]1[C@]3(C(OC)C[C@H]2O)C1C[C@@]2(O)[C@H](OC(=O)c3ccccc3)C1[C@]4(OC(C)=O)[C@@H](O)[C@@H]2OC (stereo partly specified) .
*A* F

*Q* Called result for `Cc1oncc1C(=O)Nc1ccc(C(F)(F)F)cc1`
*A* F

*Q* GET /call?item= `O=C(O)COc1ccc(Cl)cc1Cl` returns the recorded outcome of this test.
*A* F

*Q* // outcome(item) with item = CC12CCCCC1(Br)[N+](=O)N2[O-] (stereo unspecified)
*A* F

*Q* For Clc1ccc(COC(Cn2ccnc2)c2ccc(Cl)cc2Cl)cc1 (stereo unspecified) , which call appears in the assay record?
*A* T

*Q* GET /call?item= COC1C=CC23c4cc5c(cc4CN(CC2O)[C@@H]3C1)OCO5 (stereo partly specified) returns the recorded outcome of this test.
*A* F

*Q* In this assay, the call recorded for `CC(=O)O[C@]1(C)CC[C@@]23CC1C(C)(C)[C@@H]2CC[C@H]3C` was what?
*A* F

*Q* Dear all, I need the recorded test outcome for CC(=O)N[C@@H](CC(=O)O)C(=O)N[C@@H](CCC(=O)O)C(=O)O (Ac-Asp-Glu-OH) , thank you.
*A* F

*Q* # outcome recorded in this test, key = O=C(O)C1CCCNC1 (stereo unspecified)
*A* F

*Q* Each compound tested received a call. Report the one for CC(C)/C(O)=C1/C(=O)O[C@@H](c2ccoc2)[C@]2(C)C(O)[C@@H](O)[C@@]34OC5(C)OC67CC(C)(C(O)[C@]6(O)[C@@H](O)[C@]3(O5)C12)[C@H](CC(=O)O)[C@]74C (stereo partly specified) .
*A* F

*Q* Would you mind telling me which call this test gave `Cc1nnc(NS(=O)(=O)c2ccc(N)cc2)s1` ?
*A* F

*Q* Look up the recorded call for Clc1ccc(C(c2ccccc2Cl)C(Cl)Cl)cc1 (stereo unspecified) in this test.
*A* F

*Q* Lab log entry: CC(=O)O[C@@H]1CC2C(C)(C)[C@H](O)CC[C@]2(C)C2CC[C@@]3(C)[C@H](c4ccoc4)OC(=O)C4OC43[C@@]21C (stereo partly specified) — outcome as called in the assay?
*A* F

*Q* Recorded test call requested for `O=C(O)CCCCCCCC(=O)O`
*A* F

*Q* For this compound, state the assay outcome: `COc1ccc2oc3ccccc3c(=O)c2c1`
*A* T

*Q* How did this test come out for Cc1cccc(C)c1NC(=O)C1CCCCN1C (stereo unspecified) ?
*A* F

*Q* Dear colleague, could you share the recorded outcome for COC(=O)[C@@H]1OC(=O)C2OC23[C@@]1(C)CCC1[C@]2(C)C(C[C@@H](O)[C@]13C)C(C)(C)[C@H](OC(C)=O)C[C@@H]2OC(C)=O (stereo partly specified) when you have a moment?
*A* F

*Q* // param item: CC1(C)C(=O)[C@@H]2O[C@@H]2[C@@]2(C)C1C[C@@H](O)[C@]1(C)C2CC[C@@]2(C)[C@H](c3ccoc3)OC(=O)C3OC321 (stereo partly specified) ; yields the recorded call
*A* F

*Q* How was C[C@]12C=CC(=O)C=C1CCC1C2[C@@H](O)C[C@@]2(C)C1CC[C@]2(O)C(=O)CO (stereo partly specified) classified in this test?
*A* F

*Q* # fetch the recorded call for `NC1(C(=O)O)CC1` here
*A* F

*Q* Tell me the recorded outcome of this test for `NCCCCC(=O)O` .
*A* F

*Q* For CCCCC(=O)O[C@]1(C(=O)CO)CCC2C3CCC4=CC(=O)CC[C@]4(C)C3[C@@H](O)C[C@@]21C (stereo partly specified) , what call appears in the results of this test?
*A* F

*Q* What classification did `COc1ccc(-c2oc3cc(OC)c(OC)c(OC)c3c(=O)c2OC)cc1OC` end up with in this test?
*A* F

*Q* Returns: the outcome recorded for C[C@]12CCC3c4ccc(OC(=O)c5ccccc5)cc4CCC3C1CCC2=O (stereo partly specified) in this assay.
*A* F

###

I'd appreciate it if you could supply normalized growth values for the items below.
# PROCEDURE_SUMMARY: chemical genetic growth profiling, strain panel (AID 1159580);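 note: tested at 20 µM; growth read once vehicle control cultures reached saturation at 30 °C; 1 = growth at the plate median or of vehicle wells; lower values mean less growth of the strain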
# CONDITION_SET: S. cerevisiae deletion strains, growth OD, locus YPR167C, strain met16, hits give low values
Among all 5,500 compounds or so, about 2,000 (36%) were called active. Another 18% or so got no clear call; they are omitted. The list shows a part of the results.
Response field accepts a number only; no unit should be typed.

*Q* Please give the documented normalized growth of O=C(O)C(O)C(O)C(=O)O (configuration not stated)
*A* 0.98

*Q* Give me measured normalized growth, please, for this compound: O=C(O)C1CCCNC1 (configuration not stated)
*A* 1.03

*Q* Quick one: give measured normalized growth for COC(=O)/C(C)=C\CC12OC(C)(C)C3CC(C=C4C(=O)c5c(OC)c6c(c(CC=C(C)C)c5OC431)OC(C)(CCC=C(C)C)C=C6)C2=O (configuration not stated)
*A* 0.972

*Q* State its normalized growth: `OC[C@H]1O[C@@H](n2cnc3c(NCc4ccco4)ncnc32)[C@H](O)[C@@H]1O`
*A* 1.01

*Q* Answer with the recorded normalized growth for the compound listed here: CC12CCC3C(=CCc4cc(O)ccc43)C1CCC2=O (configuration not stated)
*A* 0.975

*Q* Report normalized growth for C[C@]12CCC3c4ccc(O)cc4CCC3C1CCC2=O (some centres not stated)
*A* 0.998

*Q* Fill in reported normalized growth for this entry: CN[C@@H]1C(OC2[C@H](O[C@H]3[C@H](O)[C@@H](O)[C@H](N=C(N)N)[C@@H](O)[C@@H]3N=C(N)N)OC(C)[C@]2(O)CO)OC(CO)C(O)C1O (some centres not stated)
*A* 0.97

*Q* # return recorded normalized growth for entry `CC(C)(S)[C@@H](N)C(=O)O`
*A* 0.991

*Q* // fetch normalized growth given entry `O=c1oc2ccccc2cc1O`
*A* 0.993

*Q* Please list normalized growth recorded for the compound C[C@]12CCC3c4ccc(OC(=O)CCC(=O)O)cc4CCC3C1CCC2=O (some centres not stated)
*A* 0.998

*Q* Given the compound O=C(O)C(O)C(O)C(O)C(O)C(=O)O (configuration not stated) , write its reported normalized growth.
*A* 0.988

*Q* Supply measured normalized growth of NC(C(=O)O)C(O)C(=O)O (configuration not stated) in your reply.
*A* 1.02
